Reference source: patent US9981964B2

Provide the reported IC50 of each item.
test system: HEK293-STF3A cells; experiment: STF3A assay (STF luciferase reporter in Wnt3A-expressing HEK293 cells); assay type: cell-based; conditions: Homo sapiens, 24 h, 1 day of treatment

Consider the reported IC50 for these molecules:
INSERT INTO assay_data (smiles_text, measured_property, readout_value) VALUES
  ('CN1C(=O)C2=C(C1=O)N(CC(=O)Nc1ccc(-c3ccc(C(F)(F)F)nc3)nn1)CCC2', 'IC50', '< 5000 nM'),
  ('Cc1cc(-c2cccnc2)cnc1NC(=O)CN1CCCC2=C1C(=O)N(C)C2=O', 'IC50', '> 10000 nM'),
  ('O=C(CN1CCCC2=C1C(=O)N(C1CC1)C2=O)Nc1ccc(-c2ccc(F)cn2)cn1', 'IC50', '< 100 nM'),
  ('O=C(CN1CCCC2=C1C(=O)N(C1CC1)C2=O)Nc1cnc(-c2cccnc2)cn1', 'IC50', '< 100 nM'),
  ('CN1C(=O)C2=C(C1=O)N(CC(=O)Nc1ncc(-c3ccccc3)cn1)CCC2', 'IC50', '< 100 nM');

Lab note: each molecule below needs its IC50 filled in.
1. CN1C(=O)C2=C(C1=O)N(CC(=O)Nc1ccc(-c3ccncc3)cn1)CCC2
2. CN1C(=O)C2=C(C1=O)N(CC(=O)Nc1ccc(-c3ccc(F)cc3)nc1)CCC2
3. CN1C(=O)C2=C(C1=O)N(CC(=O)Nc1ccc(-c3cccnn3)cc1)CCC2

Output:
< 1000 nM
< 100 nM
< 1000 nM
